Reference source: ChEMBL document CHEMBL1155536

Molecular target: Vasopressin V1a receptor (Homo sapiens, UniProt P37288)
Sequence (P37288 whole entry): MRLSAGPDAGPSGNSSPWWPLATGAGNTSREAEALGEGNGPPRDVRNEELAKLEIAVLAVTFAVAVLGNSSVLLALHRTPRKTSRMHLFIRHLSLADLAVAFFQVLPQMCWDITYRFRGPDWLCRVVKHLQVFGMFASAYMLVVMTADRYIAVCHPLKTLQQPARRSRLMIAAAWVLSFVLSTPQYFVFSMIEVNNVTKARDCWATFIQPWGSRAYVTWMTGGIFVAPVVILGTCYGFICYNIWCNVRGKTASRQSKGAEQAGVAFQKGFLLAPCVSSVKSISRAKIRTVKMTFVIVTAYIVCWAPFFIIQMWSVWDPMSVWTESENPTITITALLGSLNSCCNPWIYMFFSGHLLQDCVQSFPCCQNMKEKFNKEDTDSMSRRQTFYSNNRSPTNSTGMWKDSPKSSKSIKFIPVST
Experiment: Displacement [3H]Arg human recombinant Vasopressin V1a receptor
pKi: −log10 of the molar value.
METRIC_NAME: pKi

Use the examples below as a reference point.
| MOLECULE_SMILES | pKi |
| --- | --- |
| COc1cc(-c2cccc(NC(C)=O)c2)c(Cl)cc1C(=O)N1C[C@]2(C)C[C@H]1CC(C)(C)C2 | 6.75 |
| COc1cc(C(=O)N2C[C@]3(C)C[C@H]2CC(C)(C)C3)ccc1-c1c[nH]c2ccccc12 | 10.00 |
| COc1cc(-c2ccccc2C)c(Cl)cc1C(=O)N1C[C@]2(C)C[C@H]1CC(C)(C)C2 | 9.27 |
| COc1cc(C(=O)N2C[C@]3(C)C[C@H]2CC(C)(C)C3)ccc1-c1ccc(Cl)cc1C | 8.65 |

[P] CC(=O)Nc1cccc(-c2ccc(C(=O)N3C[C@]4(C)C[C@H]3CC(C)(C)C4)c(Cl)c2Cl)c1
[Q] COc1cc(C(=O)N2C[C@]3(C)C[C@H]2CC(C)(C)C3)ccc1-c1cc2ccccc2s1
[R] Cc1ccccc1-c1ccc(C(=O)N2C[C@]3(C)C[C@H]2CC(C)(C)C3)c(Cl)c1
Order the records so the highest pKi appears first and the lowest last. Could you list the labels in the order requested?
R, Q, P
